Listing: Kd of selected binders
- ASSAY_TARGET: T1, Duck egg lysozyme (DEL), D65N + N103D double mutant of the DEL-II isoform (Anas platyrhynchos, DEL-II double mutant, strain)
- T1 construct: duck egg lysozyme, DEL-II isoform, D65N + N103D double mutant; differs from HEL3X at 25 amino acids; source: Pichia pastoris, secreted, purified from culture supernatant (ion exchange)
- T1 chain: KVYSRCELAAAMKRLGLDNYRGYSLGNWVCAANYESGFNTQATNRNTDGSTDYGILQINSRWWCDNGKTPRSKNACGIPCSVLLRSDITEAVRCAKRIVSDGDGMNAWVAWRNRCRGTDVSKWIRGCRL
- TEST_PROTOCOL: BLI; BLItz (ForteBio); biotinylated Hy10 Fab variant immobilised on streptavidin biosensors (rehydrated in PBS with 0.1% wt/vol BSA); soluble monomeric lysozyme antigen as analyte at a range of concentrations; global fit, 1:1 Fab-lysozyme interaction
- APPLIED_CONDITIONS: both partners purified

BINDER	VALUE_UNITS	Kd
Hy10 Fab I29F/S52T/Y58F (Fab, V domains shown, as the heavy chain of Dm5 with the stated changes; as the light chain of Dm5; source: Expi293, transient (pCEP4), purified (Talon resin, gel filtration)) VH: DVQLQESGPSLVKPSQTLSLTCSVTGDSFTSDYWSWIRKFPGNRLEYMGYVTYSGSTFYNPSLKSRISITRDTSKNQYYLDLNSVTTEDTATYYCANWDGDYWGQGTLVTVSA VL: DIVLTQSPATLSVTPGNSVSLSCRASQSIGNNLHWYQQKSHESPRLLIKYASQSISGIPSRFSGSGSGTDFTLSINSVETEDFGMYFCQQSNSWPYTFGGGTKLEIK	nM	1.69
Hy10 Fab I29F/S52T/Y53F/Y58F (Fab, V domains shown, as the heavy chain of Dm5 with the stated changes; as the light chain of Dm5; source: Expi293, transient (pCEP4), purified (Talon resin, gel filtration)) VH: DVQLQESGPSLVKPSQTLSLTCSVTGDSFTSDYWSWIRKFPGNRLEYMGYVTFSGSTFYNPSLKSRISITRDTSKNQYYLDLNSVTTEDTATYYCANWDGDYWGQGTLVTVSA VL: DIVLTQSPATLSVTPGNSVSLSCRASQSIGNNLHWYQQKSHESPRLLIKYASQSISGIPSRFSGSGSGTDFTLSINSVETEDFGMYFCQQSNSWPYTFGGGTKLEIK	nM	0.133
Hy10 Fab Y53F (Fab, V domains shown, as the heavy chain of Dm5 with the stated changes; as the light chain of Dm5; source: Expi293, transient (pCEP4), purified (Talon resin, gel filtration)) VH: DVQLQESGPSLVKPSQTLSLTCSVTGDSITSDYWSWIRKFPGNRLEYMGYVSFSGSTYYNPSLKSRISITRDTSKNQYYLDLNSVTTEDTATYYCANWDGDYWGQGTLVTVSA VL: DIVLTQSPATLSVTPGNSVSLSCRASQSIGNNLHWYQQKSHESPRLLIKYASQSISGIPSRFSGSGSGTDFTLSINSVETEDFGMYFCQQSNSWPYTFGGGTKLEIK	nM	8.35
Hy10 Fab S31N (Fab, V domains shown, as the heavy chain of Dm5 with the stated changes; as the light chain of Dm5; source: Expi293, transient (pCEP4), purified (Talon resin, gel filtration)) VH: DVQLQESGPSLVKPSQTLSLTCSVTGDSITNDYWSWIRKFPGNRLEYMGYVSYSGSTYYNPSLKSRISITRDTSKNQYYLDLNSVTTEDTATYYCANWDGDYWGQGTLVTVSA VL: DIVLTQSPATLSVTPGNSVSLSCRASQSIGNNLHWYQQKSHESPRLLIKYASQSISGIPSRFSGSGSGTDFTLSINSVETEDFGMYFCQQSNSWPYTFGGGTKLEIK	nM	104
